Origin of the recorded values: paper PMC2813939

# target-or-test-system: human D2 receptor (short isoform, D2S) (Homo sapiens, UniProt P14416)
# Sequence (P14416 1-414 isoform P14416-2): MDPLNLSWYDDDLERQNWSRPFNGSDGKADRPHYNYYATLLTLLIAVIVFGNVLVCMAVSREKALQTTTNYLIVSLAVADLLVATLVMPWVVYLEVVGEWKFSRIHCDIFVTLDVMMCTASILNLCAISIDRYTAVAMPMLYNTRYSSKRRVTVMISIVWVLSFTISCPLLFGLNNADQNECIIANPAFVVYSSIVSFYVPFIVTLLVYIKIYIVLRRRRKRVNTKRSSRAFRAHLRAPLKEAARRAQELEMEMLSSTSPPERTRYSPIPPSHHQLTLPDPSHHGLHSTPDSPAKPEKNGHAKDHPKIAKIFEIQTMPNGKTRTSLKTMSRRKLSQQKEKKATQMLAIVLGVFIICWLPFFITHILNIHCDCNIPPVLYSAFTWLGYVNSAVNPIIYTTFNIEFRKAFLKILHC
# assay-summary: cell-based
# Type: binding
# experimental-conditions: read-out: Surface D2 receptor (Q-/MTSET-) KI(s)
Record form. Attribute: Ki. Fill in for each entry.
Answers are plain numbers, in nM.

>>> df
                                   molecule                     target_or_test_system  observed_value
0  CCN1CCC[C@H]1CNC(=O)c1c(OC)ccc(I)c1O [IBZM]  human D2 receptor (short isoform, D2S) (Homo sapiens, UniProt P14416)            0.19

// next entry
Problem: Need Ki, item CCN1CCC[C@H]1CNC(=O)c1cc(Br)cc(OC)c1OC [FLB 457]
Result: 0.03
